- Test system: MDA-MB-231 breast
- EXPERIMENT DESCRIPTION: NCI-60 one-dose screen, 48 h (100 = growth as untreated, 0 = no growth, -100 = all killed)
- TEST PARAMETERS: 10 µM unless noted
Compounds without any hit were thinned out: in the full panel of roughly 83,000, 20% have a hit.
ASSAY ENDPOINT: growth (%)
One number for each entry, in %.

COc1ccc(N(CC(=O)NCCC[Te]c2ccccc2)C(=O)CNC(=O)OC(C)(C)C)cc1
1.63

Batch request: growth per item, same order as input.
1. CC12CC=CCC1CCC1C2CCC2(C)C(c3ccc(=O)oc3)CCC12O (stereo not given)
2. CCC1CN1CCCCN1CC1CC (stereo not given)
3. CCn1c2ccccc2c2cc(C(=O)c3ccc(C)c4ccccc34)ccc21
4. N#C[Se]CCN1C(=O)c2ccccc2C1=O

[-4.41, 96.7, 26.4, 55.9]

Hey, quick one: what's growth for each of these?
1. CC(=O)OC1CCC2(C)C(CCC3C2CC(=O)C2(C)C3CC(Sc3ccc(N(CCCl)CCCl)cc3)C2C(C)=O)C1 (stereo not given)
2. Fc1ccc2c(c1)c(-c1nc(-c3c[nH]c4ncccc34)cs1)cn2CCN1CCOCC1
3. Clc1ccc2nnnn2n1
4. COc1cc(C=Nc2cccc(C(=O)O)c2)ccc1N(CCCl)CCCl
5. CCOP(=O)(Nc1ccc2c(c1)/C(=N/NC(N)=S)c1ccccc1-2)OCC

1. 85.6
2. 42.6
3. 36.8
4. 106
5. 59.7

Please give growth, item by item, for the list that follows.
1. COc1ccc2nc(NC(=O)COc3cc(/C=C\c4cc(OC)c(OC)c(OC)c4)ccc3OC)sc2c1
2. COC(=O)[C@@H](C)C[C@H](Cc1ccc(F)cc1)NC(=O)c1csc([C@@H](C[C@H](C(C)C)N(C)C(=O)[C@@H](NC(=O)[C@H]2CCCCN2C)C(C)C)OC(C)=O)n1
3. C[N+](C)(C)Cc1cc(Cl)ccc1O
4. CN(C)C(=O)Oc1ccccc1
5. CCN(CC)CCOC(=O)C(OC(C)C)(c1ccccc1)c1ccccc1
6. CCOC(=O)[C@@H](C)C[C@H](Cc1ccccc1)NC(=O)c1csc([C@@H](C[C@H](C(C)C)N(C)C(=O)[C@@H](NC(=O)[C@H]2C[C@H](O)CCN2C)C(C)C)OC(C)=O)n1
7. O=[N+]([O-])CC(O)C(Cl)(Cl)Cl (stereo not given)

1. 22.7
2. 4.87
3. 109
4. 115
5. 99.3
6. 14.5
7. 122

Give measured growth for every item shown.
1. Clc1cccc(N2COOC3(OOC2)C2CC4CC(C2)CC3C4)c1
2. Cc1cccc(N2CCN(C(C)C#N)CC2)c1 (stereo not given)
3. CCOC(=O)[C@@H](C)C[C@H](Cc1ccccc1)NC(=O)c1csc([C@@H](C[C@H](C(C)C)N(C)C(=O)[C@H](CC)NC(=O)[C@H]2CCCCN2C)OC(C)=O)n1

1: 98.9; 2: 104; 3: 5.4
